tested on: CYP3A4; experiment: clinical; conditions: human, in vivo, po, AUCinf, geometric mean (Geo CV%), midazolam 2 mg single oral dose with RBN-3143 300 mg BID at steady state (day 16), N=12
parameter: AUC(0-inf) (ng·h/mL)
// return numeric value only (unit: ng·h/mL, not printed)

Can you look up the measured AUC(0-inf) of Cc1ncc2n1-c1ccc(Cl)cc1C(c1ccccc1F)=NC2 [Midazolam, midazolam] for me? 18.3

* * *

experiment: Single ascending dose (SAD) pharmacokinetics in healthy volunteers; format: in vivo, human; conditions: human, plasma, po, 50 mg, single oral dose 50 mg, plasma; read-out: Cmax, geometric mean (Geo CV%)
parameter: Cmax (ng/mL)
// return numeric value only (unit: ng/mL, not printed)

Can you look up the measured Cmax of CC(=O)N1CCC(COc2cc(F)c3c(=O)[nH]c(CSC4CCOCC4)nc3c2)CC1 [RBN‐3143] for me? 259

* * *

test system: CYP3A4; assay: clinical; settings: human, in vivo, po, 2 mg, Cmax, mean (SD), midazolam 2 mg single oral dose without RBN-3143 (day 1), N=12
parameter: Cmax (ng/mL)
// return numeric value only (unit: ng/mL, not printed)

Can you look up the measured Cmax of Cc1ncc2n1-c1ccc(Cl)cc1C(c1ccccc1F)=NC2 for me? 10.3

Hello, the source for this data is paper PMC12209991, in case you need it.
